// data source = patent US9332770B2

# Test system: Lactobacillus plantarum LMG P-26358
# protocol.description: growth profile in MRS broth substituted with various sugars
# Assay type: cell-based
# settings: 2% sugar in the MRS broth
Catalogue of GT (generation time) readings, one per entry.
Report as a plain number; the unit min is understood.

[Q] Report GT (generation time) for OC[C@H]1O[C@@H](O[C@H]2[C@H](O)[C@@H](O)C(O)O[C@@H]2CO)[C@H](O)[C@@H](O)[C@H]1O (some centres unmarked) tested on Lactobacillus plantarum LMG P-26358.
[A] 100

----------
# Test system: Lactobacillus plantarum LMG P-26358
# protocol.description: growth profile in MRS broth substituted with various sugars
# Format: cell-based
# settings: 2% sugar in the MRS broth
Param threshold (90 min) applies to GT (generation time); output class 1 when value >= threshold, class 0 when value < threshold.

Some entries whose results are on file:
OC[C@H]1O[C@H](OC[C@H]2O[C@H](O[C@]3(CO)O[C@H](CO)[C@@H](O)[C@@H]3O)[C@H](O)[C@@H](O)[C@@H]2O)[C@H](O)[C@@H](O)[C@H]1O class 1
OC[C@H]1O[C@@](CO)(O[C@H]2O[C@H](CO)[C@@H](O)[C@H](O)[C@H]2O)[C@@H](O)[C@@H]1O class 0
OC[C@H]1O[C@H](O[C@H]2[C@H](O)[C@@H](O)[C@H](O)O[C@@H]2CO)[C@H](O)[C@@H](O)[C@@H]1O class 0
O=C[C@H](O)[C@@H](O)[C@@H](O)[C@H](O)CO class 1

We next turn to a different molecule, shown below.
[Q] Quick check, GT (generation time) >= 90 min? O=C(CO)[C@@H](O)[C@H](O)[C@H](O)CO
[A] class 1
